Entries and their fraction unbound at 4 h values follow.
protocol description: Plasma protein binding, HT-Dialysis (human)
Type: in vitro ADME
conditions used: pH 7.4, dialysis 4 hours, read-out: percent unbound

>  <compound>
C[C@H](CC/C=C/C(=O)OC(C)(C)C)O[C@@H]1O[C@@H](C)[C@H](O)C[C@H]1O [Compound 1]

>  <result>
0.329

$$$$

Let us move to another entry and its fraction unbound at 4 h.
Problem: // lookup fraction unbound at 4 h for C[C@H](CC/C=C/C(=O)O)O[C@@H]1O[C@@H](C)[C@H](O)C[C@H]1O [ascr #7, reference compound]
Result: 0.868

====

protocol description: Stability in hepatocytes (mouse)
Assay type: in vitro ADME
conditions used: cryopreserved mouse hepatocytes (suspension)
test readout: half-life at 1 µM

Problem: // lookup half-life at 1 µM for C[C@H](CC/C=C/C(=O)O)O[C@@H]1O[C@@H](C)[C@H](O)C[C@H]1O [ascr #7, reference compound]
Result: > 3.61 h

From: patent US11845770B2
